# Target or system: T1, PUF4 RNA-binding domain (Saccharomyces cerevisiae, UniProt P25339 537-888)
# T1 sequence: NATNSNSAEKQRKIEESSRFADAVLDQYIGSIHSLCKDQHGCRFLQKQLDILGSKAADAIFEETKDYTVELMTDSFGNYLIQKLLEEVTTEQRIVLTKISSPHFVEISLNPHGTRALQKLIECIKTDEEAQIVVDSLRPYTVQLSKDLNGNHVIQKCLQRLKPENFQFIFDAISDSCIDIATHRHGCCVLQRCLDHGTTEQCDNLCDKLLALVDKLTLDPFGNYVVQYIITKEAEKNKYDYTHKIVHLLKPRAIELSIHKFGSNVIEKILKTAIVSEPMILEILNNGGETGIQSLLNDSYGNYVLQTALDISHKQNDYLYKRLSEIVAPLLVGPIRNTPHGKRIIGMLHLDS
# Assay overview: Mg; RNA-MaP; 20 mM Na-HEPES pH 7.4, 30 mM KOAc, 0.75 mM MgCl2, 0.1% Tween-20, 5% glycerol, 0.1 mg/mL BSA, 2 mM DTT; 25 C; 0.0125-409.6 nM protein
# Measurement parameters: tags: N-His6-TEV cleaved; C-SNAP kept, Cy3B-labelled; label: tethered on chip by stalled RNA polymerase
# note: boundary value 30 nM maps to Criterion not met; Kd below it maps to Criterion met

UCUCUUUGUACAGCAUCUCUU (ssRNA) [Ic_S1_P4E.1_K4.1_C4.1_H4.1_A4.1_[T5C]_[T7G]_F4.1_[T8C]_T4.1] :: Criterion not met
Id_ii_S2_P4E.4_K4.3_C4.2_[C-2T]_[T-1A]_H4.3_A4.1_F4.1_T4.2_[G10T] (ssRNA) RNA: UUUGAUUAAUAUGAUAUCGUUCUUUCUUAACACUAUUAUUUUCUUUCUCGAUAUCAUAUUAAUCUUU :: Criterion not met
UCUCUUUUACACUUAUUAUGUCUCUU (ssRNA) [Id_ii_S1_P5E.4_K5.3_C5.2_[C-2T]_H5.3_A5.1_F5.1_T5.2_[A12G]] :: Criterion not met
Id_ii_S2_P5E.3_K5.2_C5.2_[T-1G]_H5.2_A5.1_F5.1_T5.2_[A12C] (ssRNA) RNA: UUUGAUUAAUAUGAUAUCGUUCUUUCUCGUAUAUUAUUAUCUUCUUUCUCGAUAUCAUAUUAAUCUUU :: Criterion met
UCUCUUUGUAACCUAGUCUCUU (ssRNA) [Ic_S1_P5E.1_K5.1_C5.1_H5.1_A5.1_[T5A]_[T6C]_[A7C]_F5.1_[T9A]_[A10G]_T5.1] :: Criterion met
ACAAACUGCUUAUAUUAACAAAC (ssRNA) [Ie_S3_P4E.1_K4.1_C4.1_H4.1_[+2CT]_A4.1_F4.1_T4.1] :: Criterion not met
UCUCUUUGUAAAUCAGUCUCUU (ssRNA) [Ic_S1_P5E.1_K5.1_C5.1_H5.1_A5.1_[T5A]_[T6A]_[A7T]_F5.1_[T8C]_[T9A]_[A10G]_T5.1] :: Criterion met
Ic_S2_P4E.1_K4.1_C4.1_H4.1_A4.1_[T7C]_F4.1_[T8A]_T4.1 (ssRNA) RNA: UUUGAUUAAUAUGAUAUCGUUCUUUCUUGUAUACAAUUCUUUCUCGAUAUCAUAUUAAUCUUU :: Criterion met
ACAAACGAUAUAUAUUACCACAAAC (ssRNA) [Id_ii_S3_P4E.3_K4.2_C4.2_[C-2G]_[T-1A]_H4.2_A4.1_F4.1_T4.2_[G10C]_[T11C]] :: Criterion not met
Ib_S2_P5E.1_K5.1_C5.1_H5.1_[T1G]_[G2T]_A5.1_F5.1_T5.1 (ssRNA) RNA: UUUGAUUAAUAUGAUAUCGUUCUUUCUGUUAUUAUUAUUCUUUCUCGAUAUCAUAUUAAUCUUU :: Criterion not met
UCUCUUUGUAGUUCAUCUCUU (ssRNA) [Ic_S1_P4E.1_K4.1_C4.1_H4.1_A4.1_[T5G]_[A6T]_F4.1_[T8C]_T4.1] :: Criterion not met
Id_ii_S2_P5E.2_K5.1_C5.2_[C-2T]_[T-1C]_H5.1_A5.1_F5.1_T5.2_[T11A] (ssRNA) RNA: UUUGAUUAAUAUGAUAUCGUUCUUUCUUCUGUAUUAUUAAAUUCUUUCUCGAUAUCAUAUUAAUCUUU :: Criterion met
